# PROCEDURE TEXT: First-in-human clinical study: plasma and whole blood PK of INX-315 (oral QD, ASD tablet)
# Format: in vivo
# MEASUREMENT CONTEXT: human, plasma, oral, 100 mg, 100 mg QD (n = 6), 6.0 hr
QUANTITY NAME: concentration at 6 h (ng/mL)
Give just the numeric value; ng/mL need not be written.

What value of concentration at 6 h has been reported for the following compound? NS(=O)(=O)c1ccc(Nc2ncc3cc4n(c3n2)C2(CCCCC2)C(=O)NN4)cc1
132

----------
# PROCEDURE TEXT: First-in-human clinical study: plasma and whole blood PK of INX-315 (oral QD, ASD tablet)
# Format: in vivo
# MEASUREMENT CONTEXT: human, whole blood, oral, 100 mg, whole blood, 100 mg QD, Day 15, Cohort 1 (Table 28); read-out: Cmax, median
QUANTITY NAME: Cmax
Don't forget the unit after the number, please.

What value of Cmax has been reported for the following molecule? NS(=O)(=O)c1ccc(Nc2ncc3cc4n(c3n2)C2(CCCCC2)C(=O)NN4)cc1
3580 ng/mL
